# Tested on: 966289-007-R4-J1-PDC complex spheroid viability;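 note: spheroids exposed to the agents for seven days before readout; percent viability relative to DMSO vehicle control wells taken as 100%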
# method.notes: Anticancer human tumor 966289-007-R4-J1-PDC patient-derived pancreatic adenocarcinoma cell line growth inhibition [GQUAD]
# particulars: second compound 1 µM; first compound 0.1 µM; stronger effect = lower value

{"columns": ["molecule", "viability, T/C, %"],
 "data": [
  ["CCCS(=O)(=O)Nc1ccc(F)c(C(=O)c2c[nH]c3ncc(-c4ccc(Cl)cc4)cc23)c1F + Cc1[nH]c2ccc(F)cc2c1-c1nc2c3cccnc3c3ncccc3c2[nH]1", 112],
  ["CCCS(=O)(=O)Nc1ccc(F)c(C(=O)c2c[nH]c3ncc(-c4ccc(Cl)cc4)cc23)c1F + CN(C)c1ccc(Nc2c3ccc(NC(=O)CCN4CCCC4)cc3nc3cc(NC(=O)CCN4CCCC4)ccc23)cc1", 104],
  ["CC(C)(O)C1CCC(Nc2ccc3ncc(-c4cccc(C(F)(F)F)c4)n3n2)CC1 (stereo not drawn) + Cc1[nH]c2ccc(F)cc2c1-c1nc2c3cccnc3c3ncccc3c2[nH]1", 106],
  ["CC1COCCN1c1cc(C2(O)CC3CCC(C2)O3)c2cnn(-c3ccn[nH]3)c2n1 (stereo not drawn) + CN(C)c1ccc(Nc2c3ccc(NC(=O)CCN4CCCC4)cc3nc3cc(NC(=O)CCN4CCCC4)ccc23)cc1", 74.3],
  ["C=CCn1c(=O)c2cnc(Nc3ccc(N4CCN(C)CC4)cc3)nc2n1-c1cccc(C(C)(C)O)n1 + Cc1[nH]c2ccc(F)cc2c1-c1nc2c3cccnc3c3ncccc3c2[nH]1", 98.3],
  ["CC1COCCN1c1cc(C2(O)CC3CCC(C2)O3)c2cnn(-c3ccn[nH]3)c2n1 (stereo not drawn) + Cc1cnc(CNC(=O)c2c(=O)c3ccc(N4CCCN(C)CC4)nc3n3c2sc2ccccc23)cn1", 6.03],
  ["COc1cccc2c1C(=O)c1c(O)c3c(c(O)c1C2=O)CC(O)(C(=O)CO)CC3OC1CC(N)C(O)C(C)O1 (stereo not drawn) + CN(C)c1ccc(Nc2c3ccc(NC(=O)CCN4CCCC4)cc3nc3cc(NC(=O)CCN4CCCC4)ccc23)cc1", 21.3],
  ["Nc1ccn(C2OC(CO)C(O)C2(F)F)c(=O)n1 (stereo not drawn) + Cc1[nH]c2ccc(F)cc2c1-c1nc2c3cccnc3c3ncccc3c2[nH]1", 0.98]
]}
